test: Plasma stability, mini pig plasma; assay type: in vitro ADME, Mini Pigs; details: 37° C., 120 min
So I've got a bunch of compounds here, and I need their % Retained values.
Write the answer as a number in %, unit excluded.

-- ask // fetch % Retained given entry `COCCOCC(=O)OCCN(C)C(=O)n1ccc2c(N(C)[C@H]3CN(C(=O)CC#N)CC[C@H]3C)ncnc21`
-- reply 0.0

-- ask Return the recorded % Retained value; entry: `CCCCC(=O)OCCN(C)C(=O)n1ccc2c(N(C)[C@H]3CN(C(=O)CC#N)CC[C@H]3C)ncnc21`
-- reply 0.1

-- ask Give me measured % Retained, please, for this compound: `C[C@@H]1CCN(C(=O)CC#N)C[C@@H]1N(C)c1ncnc2c1ccn2C(=O)N(C)CCOC(=O)c1ccncc1`
-- reply 30.8

-- ask Assign % Retained to the following record: `CC(=O)OCCN(C)C(=O)n1ccc2c(N(C)[C@H]3CN(C(=O)CC#N)CC[C@H]3C)ncnc21`
-- reply 77.6

-- ask Give a short answer stating reported % Retained for `C[C@@H]1CCN(C(=O)CC#N)C[C@@H]1N(C)c1ncnc2c1ccn2C(=O)N(C)CCOC(=O)C1CCN(C)CC1` .
-- reply 30.7

-- ask Output % Retained of `C[C@@H]1CCN(C(=O)CC#N)C[C@@H]1N(C)c1ncnc2c1ccn2C(=O)N(C)CCOC(=O)C(C)(C)C`
-- reply 12.0

-- ask Hello, please tell me recorded % Retained for this one: `CC(C)C(=O)OCCN(C)C(=O)n1ccc2c(N(C)[C@H]3CN(C(=O)CC#N)CC[C@H]3C)ncnc21`
-- reply 3.3

-- ask Note % Retained for the compound shown: `C[C@@H]1CCN(C(=O)CC#N)C[C@@H]1N(C)c1ncnc2c1ccn2C(=O)N(C)CCOC(=O)C1CCCCC1`
-- reply 0.0

---

I'd appreciate it if you could supply % Retained values for the items below.
assay: Plasma stability, human plasma; assay type: in vitro ADME, Humans; conditions: 37° C., 10 min
Please state the figure in %; there is no need to write the unit.

-- ask Find the measured % Retained of `C[C@@H]1CCN(C(=O)CC#N)C[C@@H]1N(C)c1ncnc2c1ccn2C(=O)N(C)CCOC(=O)C1CCN(C)CC1` and report it.
-- reply 83.4

-- ask State its % Retained for this compound: `COCCOCC(=O)OCCN(C)C(=O)n1ccc2c(N(C)[C@H]3CN(C(=O)CC#N)CC[C@H]3C)ncnc21`
-- reply 2.6

-- ask Give reported % Retained value for `C[C@@H]1CCN(C(=O)CC#N)C[C@@H]1N(C)c1ncnc2c1ccn2C(=O)N(C)CCOC(=O)C(C)(C)C`
-- reply 60.2

-- ask Give the reported value of % Retained for this record: `C[C@@H]1CCN(C(=O)CC#N)C[C@@H]1N(C)c1ncnc2c1ccn2C(=O)N(C)CCOC(=O)C1CCCCC1`
-- reply 4.5

---

Provide the reported log10(solubility thermodynamic at 24 h) of each item.
assay: Thermodynamic solubility assay (PBS pH 6.5; isopropyl myristate); assay type: physicochemical; settings: aqueous buffer, thermodynamic from solid, PBS buffer pH 6.5, about 25° C., read-out: Thermodynamic Solubility pH = 6.5
All values: base-10 log of solubility thermodynamic at 24 h in µg/mL.

-- ask Give reported log10(solubility thermodynamic at 24 h) value for `C[C@@H]1CCN(C(=O)CC#N)C[C@@H]1N(C)c1ncnc2c1ccn2C(=O)N(C)CCOC(=O)C1CC(F)(F)C1`
-- reply 2.81

-- ask Indicate its recorded log10(solubility thermodynamic at 24 h); the molecule in question is `CCCCCC(=O)OCCN(C)C(=O)n1ccc2c(N(C)[C@H]3CN(C(=O)CC#N)CC[C@H]3C)ncnc21`
-- reply 2.37

-- ask Return log10(solubility thermodynamic at 24 h) (reported value) for this molecule: CCC(C)C(=O)OCCN(C)C(=O)n1ccc2c(N(C)[C@H]3CN(C(=O)CC#N)CC[C@H]3C)ncnc21 (stereo partly shown)
-- reply 2.23

-- ask Identify measured log10(solubility thermodynamic at 24 h) associated with `CCC(CC)C(=O)OCCN(C)C(=O)n1ccc2c(N(C)[C@H]3CN(C(=O)CC#N)CC[C@H]3C)ncnc21`
-- reply 2.37

-- ask Give the reported value of log10(solubility thermodynamic at 24 h) for this record: `C[C@@H]1CCN(C(=O)CC#N)C[C@@H]1N(C)c1ncnc2c1ccn2C(=O)N(C)CCOC(=O)C1CCC1`
-- reply 2.69

-- ask Note down log10(solubility thermodynamic at 24 h) recorded for `C[C@@H]1CCN(C(=O)CC#N)C[C@@H]1N(C)c1ncnc2c1ccn2C(=O)N(C)CCOC(=O)C1(C)CCC1`
-- reply 2.48

-- ask Using known records, supply log10(solubility thermodynamic at 24 h) for `C[C@@H]1CCN(C(=O)CC#N)C[C@@H]1N(C)c1ncnc2c1ccn2C(=O)N(C)CCOC(=O)C1CCCC1`
-- reply 2.48

-- ask Return log10(solubility thermodynamic at 24 h) (reported value) for this molecule: `CCC(=O)OCCN(C)C(=O)n1ccc2c(N(C)[C@H]3CN(C(=O)CC#N)CC[C@H]3C)ncnc21`
-- reply 3.39

-- ask Answer with the recorded log10(solubility thermodynamic at 24 h) for the molecule listed here: `C[C@@H]1CCN(C(=O)CC#N)C[C@@H]1N(C)c1ncnc2c1ccn2C(=O)N(C)CCOC(=O)CC1CCC1`
-- reply 2.17
